# SUBJECT OF TEST: Glutamate NMDA receptor; Grin1/Grin2c (Rattus norvegicus, UniProt P35439+Q00961)
# Sequence (Q00961 whole entry, other chains not shown): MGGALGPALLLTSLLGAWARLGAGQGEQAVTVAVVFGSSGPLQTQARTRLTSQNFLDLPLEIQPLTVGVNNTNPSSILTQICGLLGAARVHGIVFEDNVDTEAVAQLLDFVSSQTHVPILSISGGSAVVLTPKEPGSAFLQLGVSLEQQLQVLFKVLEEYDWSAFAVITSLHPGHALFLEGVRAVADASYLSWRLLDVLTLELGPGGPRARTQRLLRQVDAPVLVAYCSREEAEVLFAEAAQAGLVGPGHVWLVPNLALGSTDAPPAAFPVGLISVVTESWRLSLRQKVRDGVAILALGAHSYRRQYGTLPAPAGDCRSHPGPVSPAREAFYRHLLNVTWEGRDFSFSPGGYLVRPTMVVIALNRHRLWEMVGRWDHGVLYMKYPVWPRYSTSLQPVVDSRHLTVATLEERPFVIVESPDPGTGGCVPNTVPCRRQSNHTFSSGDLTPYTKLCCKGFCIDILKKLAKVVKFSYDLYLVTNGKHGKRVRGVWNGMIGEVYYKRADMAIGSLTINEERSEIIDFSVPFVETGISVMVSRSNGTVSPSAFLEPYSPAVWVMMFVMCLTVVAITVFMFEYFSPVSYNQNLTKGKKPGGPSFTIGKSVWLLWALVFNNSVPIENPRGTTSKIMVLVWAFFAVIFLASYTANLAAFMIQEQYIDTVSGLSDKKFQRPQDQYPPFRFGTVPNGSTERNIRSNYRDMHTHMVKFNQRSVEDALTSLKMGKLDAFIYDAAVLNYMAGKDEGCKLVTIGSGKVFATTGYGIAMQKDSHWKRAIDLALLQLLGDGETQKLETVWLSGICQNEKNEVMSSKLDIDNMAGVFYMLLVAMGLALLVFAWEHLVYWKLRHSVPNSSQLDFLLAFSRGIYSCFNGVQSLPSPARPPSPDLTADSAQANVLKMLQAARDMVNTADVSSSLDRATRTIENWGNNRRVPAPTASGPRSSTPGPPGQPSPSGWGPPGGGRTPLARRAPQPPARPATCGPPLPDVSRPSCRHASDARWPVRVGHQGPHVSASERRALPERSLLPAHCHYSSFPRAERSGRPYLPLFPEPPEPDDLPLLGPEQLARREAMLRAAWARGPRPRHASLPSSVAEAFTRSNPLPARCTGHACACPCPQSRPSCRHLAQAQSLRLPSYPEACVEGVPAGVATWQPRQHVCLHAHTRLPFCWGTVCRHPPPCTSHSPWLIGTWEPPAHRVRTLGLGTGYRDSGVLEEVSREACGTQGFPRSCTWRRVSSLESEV
# ASSAY: Positive allosteric modulation of recombinant rat GluN1/GluN2C receptor expressed in xenopus laevis oocyte assessed as potentiation of glutamate and glycine-induced current response at holding potential -40mV by two electrode voltage clamp method
pEC50: −log10 of the molar value.
MEASURED METRIC: pEC50

These recorded examples may help you get a feel for the data.
>  <COMPOUND>
CCOc1ccc(OCC2c3ccc(OC(C)C)cc3CCN2C(=O)c2cccc(Br)c2)cc1 (centres undefined)

>  <pEC50>
5.74

$$$$
>  <COMPOUND>
CC(C)Oc1ccc(OCC2c3ccc(OC(C)C)cc3CCN2C(=S)c2cccc(C(F)(F)F)c2)cc1 (centres undefined)

>  <pEC50>
6.47

$$$$
>  <COMPOUND>
COc1ccc(OCC2c3ccc(N(C)C)cc3CCN2C(=O)c2cccc(Br)c2)cc1 (centres undefined)

>  <pEC50>
5.62

$$$$
>  <COMPOUND>
CCOc1ccc(OCC2c3ccc(OC(C)C)cc3CCN2C(=S)c2ccc(F)c(Cl)c2)cc1 (centres undefined)

>  <pEC50>
6.46

$$$$
>  <COMPOUND>
CCOc1ccc(OC[C@@H]2c3ccc(OC(C)C)cc3CCN2C(=O)c2cccc(F)c2)cc1

>  <pEC50>
5.44

$$$$
>  <COMPOUND>
COc1ccc(OCC2c3ccc(OC(C)C)cc3CCN2C(=S)c2cccc(F)c2)cc1 (centres undefined)

>  <pEC50>
6.01

$$$$
>  <COMPOUND>
CC(C)Oc1ccc2c(c1)CCN(C(=O)c1cccc(F)c1)C2COc1ccc(OC(F)(F)F)cc1 (centres undefined)

>  <pEC50>
5.60

$$$$

I: COc1ccc(OCC2c3ccc(OC(C)C)cc3CCN2C(=S)c2cccc(Cl)c2)cc1 (centres undefined)
II: CCC(CC)Oc1ccc2c(c1)CCN(C(=O)c1cccc(Cl)c1)C2COc1ccc(OC)cc1 (centres undefined)
query: Between item I and item II , which reported pEC50 is smaller? Give the label of your selection.
result: II
(II: 5.80, I: 6.38)
